# systemUnderTest: single ATPase motor domain of chicken Myosin Va (Gallus gallus, UniProt Q02440)
# test: enzyme-coupled steady-state actin-activated ATPase assay, single-headed myosin V
# assayConditions: single-headed myosin V, steady-state actin-activated ATP hydrolysis
pKi: −log10 of the molar value.
observationType: pKi

| moleculeSmiles | measurement |
| --- | --- |
| O=C(O)c1cccc(SCc2cccc(Nc3ncc4c(-c5ccc(N6CCOCC6)cc5)[nH]nc4n3)c2)c1 | ~5.22 |

Values compiled from paper PMC3063097.
